# EXPERIMENTAL_TARGET: T1, Anti-PSMA Fab (SEQ ID NOs: 19, 20)
# T1 construct: Biotinylated and captured on neutravidin coated plates in the phage ELISA; also called 006 PSMA Fab
# ASSAY_EXPLANATION: phage binding ELISA; biotinylated anti-PSMA Fab on neutravidin plate, PSMA antigen as competitor, anti-M13 HRP detection
Would you kindly list Anti-PSMA Fab signal in the presence of PSMA for each of these binders?
When you answer, write just the number.

Exercise: Quick check: Anti-PSMA Fab signal in the presence of PSMA of LENWCKPAWMCRGS [Phage-2109] ?
Key: 0.0678

Exercise: Quick check: Anti-PSMA Fab signal in the presence of PSMA of VDPLCRPAWMCFGM [Phage-2112] ?
Key: 0.0801

Exercise: Quick check: Anti-PSMA Fab signal in the presence of PSMA of GEIWCIPRWMCESF [Phage-2115] ?
Key: 0.0672

Exercise: Quick check: Anti-PSMA Fab signal in the presence of PSMA of SENWCIPSWMCQGF [Phage-2103] ?
Key: 0.0813
